Tested on: 282377-053-R-J1-PDC complex spheroid viability;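 note: spheroids exposed to agents for seven days before readout; luminescence viability as percent of DMSO vehicle control wells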
Experiment: Anticancer human tumor 282377-053-R-J1-PDC patient-derived colon adenocarcinoma cell line growth inhibition [RAS]
Conditions: second compound 0.3 µM; first compound 0.1 µM; active compounds read low
Description: RAS pathway inhibitors in Combinations in Complex Spheroids A high-throughput screen of multi-cell type tumor spheroids was designed to identify active combinations of RAS pathway inhibitors and targeted small molecules. Complex spheroids include a stromal component modeled by human endothelial cells (HUVEC) and fibroblasts modeled by human mesenchymal stem cells (MSCs). […] Compounds. […] If the clinical Cmax for an agent had not been determined, the highest concentration tested was 10 microM. […]
Property: viability, T/C; scope: individual molecules
endpoint: viability, T/C (%)

{"molecule": "O=C(c1ccc(F)c(F)c1Nc1ccc(I)cc1F)N1CC(O)([C@@H]2CCCCN2)C1 + CCn1c(-c2cccnc2C(C)OC)c2c3cc(ccc31)N1CCOC(CC(NC(=O)C(C(C)C)N(C)C(=O)C3(F)CCN(C(=O)C#CC(C)(C)N(C)C)CC3)C(=O)N3CCCC(N3)C(=O)OCC(C)(C)C2)C1", "units text": "%", "meas value": 46.6}
{"molecule": "NC1c2ccccc2OC12CCN(c1cnc3c(N4CCCc5ncccc54)n[nH]c3n1)CC2 (stereo not drawn) + CCn1c(-c2cc(N3CCN(C)CC3)cnc2C(C)OC)c2c3cc(ccc31)-c1csc(n1)CC(NC(=O)C1CC1C)C(=O)N1CCCC(N1)C(=O)OCC(C)(C)C2", "units text": "%", "meas value": 152}
{"molecule": "Nc1ccn(C2OC(CO)C(O)C2(F)F)c(=O)n1 (stereo not drawn) + CCn1c(-c2cccnc2C(C)OC)c2c3cc(ccc31)N1CCOC(CC(NC(=O)C(C(C)C)N(C)C(=O)C3(F)CCN(C(=O)C#CC(C)(C)N(C)C)CC3)C(=O)N3CCCC(N3)C(=O)OCC(C)(C)C2)C1", "units text": "%", "meas value": 116}
{"molecule": "CCC(CC)c1cc(NC2CCC(N)C2)n2nccc2n1 (stereo not drawn) + CCn1c(-c2cccnc2C(C)OC)c2c3cc(ccc31)N1CCOC(CC(NC(=O)C(C(C)C)N(C)C(=O)C3(F)CCN(C(=O)C#CC(C)(C)N(C)C)CC3)C(=O)N3CCCC(N3)C(=O)OCC(C)(C)C2)C1", "units text": "%", "meas value": 90.2}
{"molecule": "C[C@@H](NC(=O)c1ncnc(N)c1Cl)c1ncc(C(=O)Nc2cc(C(F)(F)F)c(Cl)cn2)s1 + CCn1c(-c2cc(N3CCN(C)CC3)cnc2C(C)OC)c2c3cc(ccc31)-c1csc(n1)CC(NC(=O)C1CC1C)C(=O)N1CCCC(N1)C(=O)OCC(C)(C)C2", "units text": "%", "meas value": 103}
{"molecule": "CCN1CCN(Cc2ccc(Nc3ncc(F)c(-c4cc(F)c5nc(C)n(C(C)C)c5c4)n3)nc2)CC1 + CCn1c(-c2cccnc2C(C)OC)c2c3cc(ccc31)N1CCOC(CC(NC(=O)C(C(C)C)N(C)C(=O)C3(F)CCN(C(=O)C#CC(C)(C)N(C)C)CC3)C(=O)N3CCCC(N3)C(=O)OCC(C)(C)C2)C1", "units text": "%", "meas value": 124}
{"molecule": "CC(=O)OC12COC1CC(O)C1(C)C(=O)C(O)C3=C(C)C(OC(=O)C(O)C(NC(=O)OC(C)(C)C)c4ccccc4)CC(O)(C(OC(=O)c4ccccc4)C21)C3(C)C (stereo not drawn) + CCn1c(-c2cc(N3CCN(C)CC3)cnc2C(C)OC)c2c3cc(ccc31)-c1csc(n1)CC(NC(=O)C1CC1C)C(=O)N1CCCC(N1)C(=O)OCC(C)(C)C2", "units text": "%", "meas value": 54.1}
{"molecule": "CC(C)n1nc(-c2ccc3oc(N)nc3c2)c2c(N)ncnc21 + CCn1c(-c2cccnc2C(C)OC)c2c3cc(ccc31)N1CCOC(CC(NC(=O)C(C(C)C)N(C)C(=O)C3(F)CCN(C(=O)C#CC(C)(C)N(C)C)CC3)C(=O)N3CCCC(N3)C(=O)OCC(C)(C)C2)C1", "units text": "%", "meas value": 57.3}
